- Test system: B16/F0 murine melanoma
- measurement notes: In-vivo tumor uptake and biodistribution
- Parameters: species or system C57B16 mice
- test conditions: mouse, in vivo
measure name: In-vivo M/Blood
Number, no unit, nothing else.

## Task Supply measured In-vivo M/Blood of "CCN(CC)CCCN(CCSC(c1ccccc1)(c1ccccc1)c1ccccc1)CC(=O)NCCSC(c1ccccc1)(c1ccccc1)c1ccccc1" in your reply.
## Result 7.7

## Task State, in one line, measured In-vivo M/Blood of "CCCCN(CCCC)CCCN(CCSC(c1ccccc1)(c1ccccc1)c1ccccc1)CC(=O)NCCSC(c1ccccc1)(c1ccccc1)c1ccccc1"
## Result 4.3

## Task Report measured In-vivo M/Blood; entry is "CCCCN(CCCC)CCN(CCSC(c1ccccc1)(c1ccccc1)c1ccccc1)CC(=O)NCCSC(c1ccccc1)(c1ccccc1)c1ccccc1"
## Result 7.6

## Task Specify measured In-vivo M/Blood for "CCN(CC)CCN(CCSC(c1ccccc1)(c1ccccc1)c1ccccc1)CC(=O)NCCSC(c1ccccc1)(c1ccccc1)c1ccccc1" .
## Result 7.6

* * *

- measurement notes: Determination of lipophilicity and pKa values by HPLC
- Assay type: physicochemical
- test conditions: HPLC method
- Protocol: […] Determination of Lipophilicity and pKa Values. […] J. Med. Chem., 1988, 31, 1923-1933) and the partition coefficient at a given pH (D or log D) were calculated from the equation: log D=a log k′+b where the parameters a and b are predetermined using standard amines. […] The aqueous ionization constants pKa were calculated from the pKHPLC values after correction with a predetermined correction factor obtained using standard amine compounds. […]
For each of the compounds below, state its pKa.
Could you keep your reply to the number by itself?

## Task Identify pKa associated with the compound CCCCN(CCCC)CCN1CC[S][99Tc]2(=[O])[S]CC[N]2C(=O)C1 (centres unmarked) [Tc-(Compound B)]
## Result 7.7

## Task For the compound CCN(CC)CCN1CC[S][Re]2(=[O])[S]CC[N]2C(=O)C1 (centres unmarked) [Re-Compound A, [ReOAADT]-C2—NEt2] , give its reported pKa.
## Result 7.7

## Task Return value of pKa for input CCN(CC)CCCN1CC[S][Re]2(=[O])[S]CC[N]2C(=O)C1 (centres unmarked) [Re-Compound C, [ReOAADT]-C3—NEt2] , no commentary.
## Result 9.2

## Task Identify measured pKa corresponding to CCN(CC)CCN1CC[S][99Tc]2(=[O])[S]CC[N]2C(=O)C1 (centres unmarked) [Tc-(Compound A)]
## Result 7.7

## Task Report pKa, nothing else, for this compound: CCCCN(CCCC)CCN1CC[S][Re]2(=[O])[S]CC[N]2C(=O)C1 (centres unmarked) [Re-Compound B, [ReOAADT]-C2—NBu2]
## Result 7.7

* * *

- measurement notes: Determination of lipophilicity and pKa values by HPLC
- Type: physicochemical
- test conditions: HPLC method, pH 7.4
measure name: log D(pH 7.4)
Hey, just send me the number, nothing else.

## Task Please indicate log D(pH 7.4) recorded for CCCCN(CCCC)CCCN1CC[S][Re]2(=[O])[S]CC[N]2C(=O)C1 (stereo not drawn) [Re-Compound D, [ReOAADT]-C3—NBu2]
## Result 0.7

## Task Note log D(pH 7.4) for the compound shown: CCN(CC)CCCN1CC[S][Re]2(=[O])[S]CC[N]2C(=O)C1 (stereo not drawn) [Re-Compound C, [ReOAADT]-C3—NEt2]
## Result −0.5

## Task Give the measured log D(pH 7.4) for CCN(CC)CCN1CC[S][Re]2(=[O])[S]CC[N]2C(=O)C1 (stereo not drawn) [Re-Compound A, [ReOAADT]-C2—NEt2]
## Result 1.1

## Task Note down log D(pH 7.4) recorded for CCCCN(CCCC)CCN1CC[S][Re]2(=[O])[S]CC[N]2C(=O)C1 (stereo not drawn) [Re-Compound B, [ReOAADT]-C2—NBu2]
## Result 1.9

## Task Return the recorded log D(pH 7.4) value; entry: CCCCN(CCCC)CCN1CC[S][99Tc]2(=[O])[S]CC[N]2C(=O)C1 (stereo not drawn) [Tc-(Compound B)]
## Result 1.9

* * *

- Test system: B16/F0 murine melanoma
- measurement notes: In-vivo tumor uptake and biodistribution
- Set-up: species or system C57B16 mice
- test conditions: mouse, in vivo
Kindly state In-vivo M/Lung for each of the entries shown.
I'd appreciate a reply containing only the number, no unit.

## Task State, in one line, measured In-vivo M/Lung of CCCCN(CCCC)CCN(CCSC(c1ccccc1)(c1ccccc1)c1ccccc1)CC(=O)NCCSC(c1ccccc1)(c1ccccc1)c1ccccc1 [Compound B]
## Result 2.1

## Task Indicate the recorded In-vivo M/Lung value for this compound: CCN(CC)CCCN(CCSC(c1ccccc1)(c1ccccc1)c1ccccc1)CC(=O)NCCSC(c1ccccc1)(c1ccccc1)c1ccccc1 [Compound C]
## Result 2.4

## Task Specify In-vivo M/Lung for CCCCN(CCCC)CCCN(CCSC(c1ccccc1)(c1ccccc1)c1ccccc1)CC(=O)NCCSC(c1ccccc1)(c1ccccc1)c1ccccc1 [Compound D] and stop.
## Result 1.5

## Task Complete the entry with In-vivo M/Lung for CCN(CC)CCN(CCSC(c1ccccc1)(c1ccccc1)c1ccccc1)CC(=O)NCCSC(c1ccccc1)(c1ccccc1)c1ccccc1 [Compound A]
## Result 5.4

* * *

- Test system: B16/F0 murine melanoma
- measurement notes: In-vivo tumor uptake and biodistribution
- Design: species or system C57B16 mice
- test conditions: mouse, in vivo
- Experimental: In-Vivo Tumor Uptake. To study the tumor uptake of ^99mTc-complexes, Tc-(Compound A-D and J-K), in vivo, biodistribution experiments at 1 h and 6 h after their administration were carried out in C57B16 mice with palpable B16 melanoma nodules. […] Animal Studies. […] The organs and tumors were harvested and, when appropriate, blotted dry, weighed, and counted in a gamma counter along with technetium-99m standards of the injected dose. The results are expressed as % ID/g tissue (Table 4 and 5)
measure name: In-vivo M/Spleen
# print the numeric value only

## Task Specify In-vivo M/Spleen for "CCCCN(CCCC)CCN(CCSC(c1ccccc1)(c1ccccc1)c1ccccc1)CC(=O)NCCSC(c1ccccc1)(c1ccccc1)c1ccccc1" and stop.
## Result 4.0

## Task Please supply the value of reported In-vivo M/Spleen for the item "CCCCN(CCCC)CCCN(CCSC(c1ccccc1)(c1ccccc1)c1ccccc1)CC(=O)NCCSC(c1ccccc1)(c1ccccc1)c1ccccc1"
## Result 1.4

## Task Given "CCN(CC)CCCN(CCSC(c1ccccc1)(c1ccccc1)c1ccccc1)CC(=O)NCCSC(c1ccccc1)(c1ccccc1)c1ccccc1" , respond with its In-vivo M/Spleen.
## Result 3.0

## Task Supply In-vivo M/Spleen value. Item: "CCN(CC)CCN(CCSC(c1ccccc1)(c1ccccc1)c1ccccc1)CC(=O)NCCSC(c1ccccc1)(c1ccccc1)c1ccccc1"
## Result 4.2
